target_entity: T1, HIS-tagged B Lymphocyte Stimulator (human, UniProt Q9Y275 71-285)
T1 construct: Expressed in E. coli from pQE9 and purified; also called histidine-tagged B Lymphocyte Stimulator; HIS-B Lymphocyte Stimulator; not shown: histidine tag of the pQE9 vector
assay_protocol: BIAcore, periplasmic scFv on high density HIS-BLyS surface
measured_endpoint: binding result

I080E05 (scFv) scFv: EVQLVQSGAAVKKPGASVKVSCKASGYTFTTYYIHWVRQAPGQGLEWMGIINPVNGNTIYAQKFQGRVTMTRDTSTGTVNMELSSLRSEDTAVFYCVREGGGDAYDVAPYYFDYWGQGTLVTVSSGGGGSGGGGSGGGGSAQAVLTQPSSVSGAPGQRVTISCTGSSSNIGDGYDVHWYQQLPGTAPKLLIYGNSHRPSGVPDRFSGSKSDTSASLAITGLQVEDEADYFCHSYDSSVSGWIFGGGTKLTVLG    binds
I083B12 (scFv) scFv: QVQLVQSGAEVKKPGASVKVSCKASEYTFYNHYMHWVRQAPGQGLEWMGFINPSGDAAWYAQKFQGRVTLTRDTSTRTVYMELSGLTSEDTAVYYCARESGAGGYYYDDYWGKGTLVTVSSGGGGSGGGGSGGGGSALSYVLTQPPSVSVAPGKTASIPCGGNNIGSKSVQWYLQKAGQAPILVVYDDSDRPSGIPERFSGSNSGNTATLTITRVEAGDEADYYCQVWDSSSDHWFFGGGTKLTVLG    binds
I080A03 (scFv) scFv: QVQLQQSGAELKQPGTSVKVSCKASGYSFSCYDVNWVRQAPGQGLEWMGRINPNSGNTHYAQKFQDRVTMTTDTSTSTAYMELNSLRPDDTAVYFCARVGIKAAAVDNFEYWGRGTTVTVSSGGGGSGGGGSGGGGSAQSVLTQPPSASGTPGQRVTITCSGSSSNIGDYYVNWYQQVSGTTPKLIIYRDDQRPSGVPDRFSGSKSGASASLAISGLRSEDEANYFCAAWDDSLREFAFGTGTKVTVLG    binds
